Entry source: patent US11844776B2

measurementLabel: melting point

melting point lookup needed for "CCCNC(=O)C(=O)[C@H](Cc1ccccc1)NC(=O)[C@H](CC(C)C)NC(=O)OCCOC" , thanks. 108.8 to 109.9 °C

// lookup melting point for "CC(C)C[C@H](NC(=O)O[C@H]1CCOC1)C(=O)N[C@@H](Cc1ccccc1)C(=O)C(=O)NC1CC1" 169.2 to 170.5 °C

Which melting point value is on record for "COCCOC(=O)N[C@@H](CC(C)C)C(=O)N[C@@H](CCc1ccccc1)C(=O)C(=O)NC1CC1" ? 109.7 to 111.1 °C

Fill in: melting point of "CCNC(=O)C(=O)[C@H](Cc1ccccc1)NC(=O)[C@H](CC(C)C)NC(=O)OCCOC" is ___ 138 to 138.3 °C

The record that follows has no melting point shown yet.
// query melting point value for entry "CCNC(=O)C(=O)[C@H](CCc1ccccc1)NC(=O)[C@H](CC(C)C)NC(=O)OCCOC" 119.1 to 120.4 °C

----------
Target: UniProt:P43367
Sequence (P43367 whole entry): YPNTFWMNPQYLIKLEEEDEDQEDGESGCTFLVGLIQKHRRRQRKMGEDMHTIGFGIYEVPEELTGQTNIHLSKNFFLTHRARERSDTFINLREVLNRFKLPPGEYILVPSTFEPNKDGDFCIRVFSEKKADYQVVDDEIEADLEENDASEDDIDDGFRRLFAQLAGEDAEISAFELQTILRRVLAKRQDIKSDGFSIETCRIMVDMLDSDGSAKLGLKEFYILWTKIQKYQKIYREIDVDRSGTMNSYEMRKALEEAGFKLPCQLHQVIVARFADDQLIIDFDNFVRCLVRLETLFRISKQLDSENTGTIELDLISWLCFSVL
Sequence (P04574 whole entry, further chain): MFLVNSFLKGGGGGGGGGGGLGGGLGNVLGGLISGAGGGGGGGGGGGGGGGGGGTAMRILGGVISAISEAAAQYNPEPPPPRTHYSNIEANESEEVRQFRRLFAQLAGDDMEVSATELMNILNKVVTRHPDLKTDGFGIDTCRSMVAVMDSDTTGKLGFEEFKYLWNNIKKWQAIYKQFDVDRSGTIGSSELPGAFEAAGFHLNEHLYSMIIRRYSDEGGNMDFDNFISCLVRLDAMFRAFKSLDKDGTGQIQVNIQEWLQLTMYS
Assay: Measurement of inhibitory activity against m-calpain
Format: biochemical
Conditions: casein substrate, pH 7.4, 30° C. for 60 minutes; read-out: Enzyme inhibitory activity m-Calpain (IC50)
measurementLabel: pIC50
pIC50 here: minus log base 10 of the concentration, concentration in moles per litre.

Lab note: need pIC50 for "COCCOCCOCCOCCOC(=O)N[C@@H](CC(C)C)C(=O)N[C@@H](Cc1ccccc1)C(=O)C(=O)NC1CC1" on UniProt:P43367, anyone have it? 6.77

***
Observed pIC50 on UniProt:P43367 for "COCCOCCOCCOCCOCCOC(=O)N[C@@H](CC(C)C)C(=O)N[C@@H](Cc1ccccc1)C(=O)C(=O)NC1CC1" , please. 6.72

----------
measurementLabel: melting point

GET /values?readout=melting point&item= "COCCOC(=O)N[C@@H](CC(C)C)C(=O)N[C@@H](Cc1ccccc1)C(=O)C(=O)NC1Cc2ccccc2C1" 141.9 to 143.5 °C

Fill in the blank: the reported melting point of "COCCOCCOC(=O)N[C@@H](CC(C)C)C(=O)N[C@@H](CC(C)C)C(=O)C(=O)NCCOc1ccccc1" is ____. 53.3 to 54.1 °C

Quick one: melting point for "CCNC(=O)C(=O)[C@H](Cc1ccccc1)NC(=O)[C@H](CC(C)C)NC(=O)O[C@H]1CCOC1" ? 158.9 to 160.7 °C

Requested field: melting point. Item: "CCNC(=O)C(=O)[C@H](Cc1ccccc1)NC(=O)[C@H](CC(C)C)NC(=O)OC1CCOCC1" 140 to 141.8 °C

What does the data say about its melting point? Entry: "COCCOCCOCCOCCOCCOC(=O)N[C@@H](CC(C)C)C(=O)N[C@@H](Cc1ccccc1)C(=O)C(=O)NC1CC1" 98.5 to 99.9 °C

Bench note: what melting point did "CCCCNC(=O)C(=O)[C@H](Cc1ccccc1)NC(=O)[C@H](CC(C)C)NC(=O)OCCOC" show? 94 to 95.2 °C

----------
measurementLabel: melting point

Examples with answers:
Quick check: melting point of "COCCNC(=O)C(=O)[C@H](Cc1ccccc1)NC(=O)[C@H](CC(C)C)NC(=O)OCCOC" ? 127 to 127.9 °C

Value lookup for melting point; key = "COCCOC(=O)N[C@@H](CC(C)C)C(=O)N[C@@H](Cc1ccccc1)C(=O)C(=O)NC1CC1" 112.4 to 113.5 °C

Please report the recorded melting point for "COCCOCCOCCOCCOC(=O)N[C@@H](CC(C)C)C(=O)N[C@@H](Cc1ccccc1)C(=O)C(=O)NC1CC1" . 97.5 to 98.5 °C

What melting point value was documented for this compound, "COCCOC(=O)N[C@@H](CC(C)C)C(=O)N[C@@H](CC(C)C)C(=O)C(=O)NCCOc1ccccc1" ? 99.7 to 100.5 °C

Any idea what melting point was measured for "CC(C)C[C@H](NC(=O)O[C@H]1CCOC1)C(=O)N[C@@H](CCc1ccccc1)C(=O)C(=O)NC1CC1" ? 115.8 to 116.2 °C

Need melting point of "COCCOC(=O)N[C@@H](CC(C)C)C(=O)N[C@@H](Cc1ccccc1)C(=O)C(=O)NC1CCC1" , thanks. 114.2 to 115.3 °C

New cases:
Which value of melting point has been reported for "COCCOC(=O)N[C@@H](CC(C)C)C(=O)N[C@@H](Cc1ccccc1)C(=O)C(=O)NCC(F)(F)F" in the records? 152.5 to 153.9 °C

Record request: melting point value, item "CCNC(=O)C(=O)[C@H](CCc1ccccc1)NC(=O)[C@H](CC(C)C)NC(=O)O[C@H]1CCOC1" 111.9 to 114.5 °C

Sample "CC(C)C[C@H](NC(=O)OC1CCOCC1)C(=O)N[C@@H](Cc1ccccc1)C(=O)C(=O)NC1CC1" — what was its melting point? 137 to 138.2 °C
